Source of measurements: paper PMC4301919

study.system: T1, TRBP-ΔC-RBD2-Null (UniProt Q15633-2 9-215, K150A;K189A;K190A)
T1 sequence: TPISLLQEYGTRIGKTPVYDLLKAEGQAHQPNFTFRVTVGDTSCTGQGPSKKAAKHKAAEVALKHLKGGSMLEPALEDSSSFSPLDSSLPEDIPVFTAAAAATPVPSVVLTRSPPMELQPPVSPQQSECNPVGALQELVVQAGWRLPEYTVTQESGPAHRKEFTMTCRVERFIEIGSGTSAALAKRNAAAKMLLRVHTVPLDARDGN
assay.comment: EMSA; apparent Kd; nH 3.2; 50 mM sodium cacodylate pH 7.0, 50 mM potassium glutamate, 5% glycerol; EMSA 0.5 pM RNA, 30 min at room temperature, gel 0.25X TBE at 10 C; CD at 10 C with 5-15 uM RNA
assay.context: protein: recombinant; label: 5'-32P top strand (EMSA); blunt

[
  {
    "binder": "ds22 (dsRNA) RNA 1: GUCAGCAGUGCCUUAGCAGCAC RNA 2: GUGCUGCUAAGGCACUGCUGAC",
    "Kd (nM)": 340
  }
]
